System: NCI-H322M lung
experiment description: NCI-60 one-dose screen, 48 h (100 = growth as untreated, 0 = no growth, -100 = all killed)
stated conditions: 10 µM unless noted
Procedure: Growth inhibition of the NCI-H322M human Non-Small Cell Lung tumor cell line is measured as a screen for anti-cancer activity. Cells are grown in 96 well plates and exposed to the test compound for 48 hours. Compounds are tested at a single concentration, which is 10^-5 M for most compounds. The reported endpoint is percent growth (GI% or GIPRCNT), where numbers from 0 - 100% represent growth inhibition, and numbers from -100% - 0 represent cell death. […]
This is part of a sample that, as a whole, favours compounds with a hit. Of some 83,000 tested, about 20% had one in any assay.

[
  {
    "compound": "O=C(Nc1ccc(-n2ccc3c(NC(=O)c4ccccc4)ncnc32)cc1)Nc1ccc(Cl)c(C(F)(F)F)c1",
    "growth (%)": 36
  },
  {
    "compound": "OCCOCC(F)(F)F",
    "growth (%)": 97.8
  },
  {
    "compound": "CCc1c(C)c2cc(-n3c(-c4ccc(OC)cc4)csc3=N)c(O)c(C)c2oc1=O",
    "growth (%)": 54.5
  },
  {
    "compound": "Cc1ccc(=O)n(-c2ccc(Br)cc2F)c1",
    "growth (%)": 102
  },
  {
    "compound": "COc1cc(-c2nc3sc(C)cn3c2/C=C2\\C(=O)Nc3ccccc32)c(Br)c(OC)c1OC",
    "growth (%)": 55.8
  },
  {
    "compound": "CCCCCCCCCCCC(=O)OCCNC(=O)C[n+]1ccccc1",
    "growth (%)": 99.4
  },
  {
    "compound": "COc1ccc(-c2nn(-c3cccc(Cl)c3)cc2-c2cc(-c3ccc(Br)cc3)[nH]c(=O)c2C#N)cc1",
    "growth (%)": 83.9
  },
  {
    "compound": "CC(Cl)(CCl)CS(=O)(=O)c1ccc(Cl)cc1 (stereo not given)",
    "growth (%)": 100
  },
  {
    "compound": "COc1ccccc1C(OC(C)=O)OC(C)=O",
    "growth (%)": 97.5
  },
  {
    "compound": "CS(=O)(=O)Nc1cccc(-c2ccc3ncnc(Nc4cncc(Cl)c4)c3c2)c1",
    "growth (%)": 19.9
  },
  {
    "compound": "CCOc1ccccc1C(=O)N1CCN(c2cc(Cl)cc(Cl)c2)CC1",
    "growth (%)": 35
  },
  {
    "compound": "N#Cc1c2c(c(N)[nH]c1=O)C(=O)NC2(O)c1ccccc1 (stereo not given)",
    "growth (%)": 103
  },
  {
    "compound": "COc1ccc(/C=C/C(=O)c2ccc(Oc3ncnc4ccccc34)cc2)cc1OC",
    "growth (%)": 76.1
  },
  {
    "compound": "CCCCCCCCCCCCCCCC(=O)NS(=O)(=O)OC[C@H]1O[C@@H](n2cnc3c(N)ncnc32)[C@H](O)[C@@H]1O",
    "growth (%)": -46.2
  },
  {
    "compound": "O=C(Nc1ccc(-n2cc(-c3ccncc3)c(-c3ccc(O)c(Cl)c3)n2)cc1)c1cc(C(F)(F)F)cc(C(F)(F)F)c1",
    "growth (%)": 75.2
  },
  {
    "compound": "Cc1ccc2c(C3C(C#N)=C(N)Oc4cc5ccccc5cc43)cc(=O)oc2c1 (stereo not given)",
    "growth (%)": 42.7
  },
  {
    "compound": "O=C(Nc1ccc(-n2ccc3c(NC(=O)c4ccccc4)ncnc32)cc1)Nc1ccc(Cl)c(Cl)c1",
    "growth (%)": 21
  },
  {
    "compound": "O=C(Nc1ccc(F)cc1)Nc1ccc(Br)c(C(F)(F)F)c1",
    "growth (%)": 22
  },
  {
    "compound": "C=CCn1c(SCC(=O)Nc2ccc(C(=O)/C=C/c3cc(OC)c(OC)c(OC)c3)cc2)nnc1-c1ccc(OC)cc1",
    "growth (%)": 17.3
  },
  {
    "compound": "COc1ccccc1N1CCN(CCCOc2ccc(OCCCN3CCN(c4ccccc4OC)CC3)c(C(=O)c3cc(OC)c(OC)c(OC)c3)c2)CC1",
    "growth (%)": 96.5
  },
  {
    "compound": "COc1ccc(C(=O)NC(=O)Nc2ccc3c(c2)NC(=O)/C3=C\\c2[nH]c(C)c(CCC(=O)O)c2C)c(F)c1",
    "growth (%)": 50.7
  },
  {
    "compound": "O=[N+]([O-])c1ccc(NS(=O)(=O)c2cc(Cl)ccc2Cl)c2ccccc12",
    "growth (%)": 68.4
  },
  {
    "compound": "COc1ccc(-c2cnc(-c3ccc(F)cc3)[nH]2)cc1",
    "growth (%)": 213
  },
  {
    "compound": "O=C(CNc1cccnc1)Nc1ccc(C(=O)/C=C/c2ccc(Cl)cc2)cc1",
    "growth (%)": 95.9
  },
  {
    "compound": "CCN(CC)CC(=O)Nc1c(C)cccc1C",
    "growth (%)": 90.2
  },
  {
    "compound": "O=C(Nc1ccc(-n2cc(-c3ccncc3)c(-c3ccc(O)c(Cl)c3)n2)cc1)Nc1cccc(Cl)c1Cl",
    "growth (%)": 79.7
  },
  {
    "compound": "NC(N)=N/N=C/c1ccc([N+](=O)[O-])cc1",
    "growth (%)": 93.5
  },
  {
    "compound": "COc1cc(-c2nc3ccccc3s2)ccc1OCc1nc2n(n1)S(=O)(=O)c1ccccc1N2c1ccccc1",
    "growth (%)": 92.9
  },
  {
    "compound": "CC(NCCC(c1ccccc1)c1ccccc1)c1ccccc1 (stereo not given)",
    "growth (%)": 69.8
  },
  {
    "compound": "CSc1ccc(C(=O)C[n+]2cccc(C)c2)cc1",
    "growth (%)": 102
  },
  {
    "compound": "O=C(/C=C/c1ccco1)c1cccc(Nc2nc(Nc3ccccc3)nc(Nc3ccccc3)n2)c1",
    "growth (%)": 34.6
  },
  {
    "compound": "O=C(Nc1ccc(-n2cc(-c3ccncc3)c(-c3ccc(O)c(Cl)c3)n2)cc1)c1cc(Cl)cc(Cl)c1",
    "growth (%)": 50.1
  },
  {
    "compound": "Clc1ccc2c(c1)nnn1c3ncccc3c(Br)c21",
    "growth (%)": 88.5
  },
  {
    "compound": "CC1=C[S+](c2ccccc2)c2cccc3cc4ccccc4c1c23 (stereo not given)",
    "growth (%)": 21.5
  },
  {
    "compound": "Nc1nc(Nc2ccc(OCc3cccc(F)c3)cc2)c2c(n1)[nH]c1ccc(O)cc12",
    "growth (%)": 3.43
  }
]

----------
Tested on: SNB-19 CNS
experiment description: NCI-60 one-dose screen, 48 h (100 = growth as untreated, 0 = no growth, -100 = all killed)
stated conditions: 10 µM unless noted
The panel holds about 83,000 compounds, 20% with a hit somewhere; the sample as a whole holds those more often.
Items are presented alongside their recorded growth.

[
  {
    "molecule": "CCN1CCN(Cc2ccc(NC(=O)Nc3cccc(-n4ccc5c(NC(=O)c6ccccc6)nccc54)c3)cc2C(F)(F)F)CC1",
    "growth / %": 89.8
  },
  {
    "molecule": "Fc1cccc(F)c1C#Cc1ccc2cccnc2c1",
    "growth / %": 91.3
  },
  {
    "molecule": "CC(C(=O)O)N1C(N)=NNC1c1ccccc1O (stereo not given)",
    "growth / %": 88.5
  },
  {
    "molecule": "O=C(/C=C/c1ccco1)c1cccc(Nc2nc(Nc3ccccc3)nc(Nc3ccccc3)n2)c1",
    "growth / %": 92.4
  },
  {
    "molecule": "O=C(NCCNc1nccc(-c2c(-c3cccc(O)c3)nc3sccn23)n1)c1ccccc1O",
    "growth / %": 90.2
  }
]

----------
System: HT29 colon
experiment description: NCI-60 one-dose screen, 48 h
stated conditions: 10 µM unless noted
About 83,000 compounds went through this panel and 20% of them were active in at least one assay; those are over-represented in the sample as a whole. Calls of active or inactive are those of the source. How the source made its calls: active means growth percent below 10; inactive means the rest.
Possible outcomes: active, inactive

[
  {
    "compound": "ClC1c2ccccc2CCc2ccccc21",
    "class name": "inactive"
  },
  {
    "compound": "Cc1nccc2c3ccc(OCc4cn(Cc5ccc(Br)cc5)nn4)cc3n(CCCc3ccccc3)c12",
    "class name": "inactive"
  },
  {
    "compound": "CCC(CC(C)C)Nc1ccc(NC(CC)CC(C)C)cc1 (configuration not stated)",
    "class name": "inactive"
  },
  {
    "compound": "CN(C)c1ccc(/C=N/N=C(N)N)cc1",
    "class name": "inactive"
  },
  {
    "compound": "Cc1cc[n+](CCCC[n+]2ccc(C)cc2)cc1",
    "class name": "inactive"
  },
  {
    "compound": "Cc1ccc2c(C3C(C#N)=C(N)Oc4cc5ccccc5cc43)cc(=O)oc2c1 (configuration not stated)",
    "class name": "active"
  },
  {
    "compound": "CC1(C)N=C(N)N=C(N)N1c1ccc(OCC(=O)Nc2ccccc2)c(Cl)c1",
    "class name": "inactive"
  }
]
